- subjectOfTest: T1, human BCMA protein (human, UniProt Q02223 1-54, limits assumed)
- T1 sequence: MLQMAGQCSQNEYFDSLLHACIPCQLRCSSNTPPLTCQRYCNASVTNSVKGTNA
- experimentSummary: affinity to human BCMA protein, method not stated
parameter: Kd (nM)
Express your answer in nM, writing the number without its unit.

binder="BCMA targeting trispecific protein 02G05 (other, not shown: large carriers; small tags and cut ends, trispecific) VHH: EVQLVESGGGLVQPGRSLTLSCAASTNITSISPMGWYRQAPGKQRELVAAIHGNSTLYADSVKGRFTISRDNAKNSIYLQMNSLRPEDTALYYCNKVPWGDYHPGNVYWGQGTQVTVSS" measuredresult=7.12
binder="BCMA targeting trispecific protein 01C02 (other, trispecific; not shown: The C-terminal 6xHis tag is left out because it follows these missing domains) VHH: EVQLVESGGGLVQPGRSLTLSCAASTNIESISPMGWYRQAPGKQRELVAAIHGNSTLYADSVKGRFTISRDNAKNSIYLQMNSLRPEDTALYYCNKVPWGRYHPRNVYWGQGTQVTVSS" measuredresult=20
binder="BCMA targeting trispecific protein 02A04 (other, trispecific; not shown: The C-terminal 6xHis tag is left out because it follows these missing domains) VHH: EVQLVESGGGLVQPGRSLTLSCAASTNIFSQSPMGWYRQAPGKQRELVAAIHGKSTLYADSVKGRFTISRDNAKNSIYLQMNSLRPEDTALYYCNKVPWGDYHPSNVYWGKGTQVTVSS" measuredresult=17.6

Request: Determine from records and report Kd for BCMA targeting trispecific protein 01C01 (other, not shown: large carriers; small tags and cut ends, trispecific) VHH: EVQLVESGGGLVQPGRSLTLSCAASTNIVSISPMGWYRQAPGKQRELVAAIHGHSTLYADSVKGRFTISRDNAKNSIYLQMNSLRPEDTALYYCNKVPWGDYHPGNVYWGQGTQVTVSS
Response: 6.52
